- System: MS2 coat protein
- assayProcedure: apparent KD of MS2 coat protein; designed switch direction (-1 OFF switch, 1 ON switch): 1; higher = weaker reporter binding
- conditionDescription: input ligand: FMN 200 uM
Exercise: state measured apparent KD of MS2 coat protein for each of the sequences provided.
State the answer as a number, implicitly in µM.

Input line: Kindly state the measured apparent KD of MS2 coat protein obtained for GGAGCCGGCCUAGGAUAUUUCAUAAAAAUACAUGAGGAUCACCCAUGUAGGCCAGAAGGCCUUGGGAAGAAGGAGGUCGGCUCC [Loop Effect - U29] (Eterna round: R96, puzzle: Same State NG 2) with MS2 coat protein.
Output line: 0.0107

Input line: Give MS2 coat protein apparent KD of MS2 coat protein for AAACGGCCGAACGGAGGGCCACAUGAGGAUCACCCAUGUACAUAGGAUAUCACGCCAACGAAGCGUGAGAAGGGUGAUUAAAAC [Anriusxees] (Eterna round: R96, puzzle: Same State NG 3)
Output line: 0.341

Input line: Form field - read-out: apparent KD of MS2 coat protein; system: MS2 coat protein; submitted item: AUGAAGAAUUAAGGAUAUUGAUUACAUAUGUUUAACAUGAGGAUCACCCAUGUGGGUUGCGGUAUCGAGAAGGUAAAUUACAAG [Mat - same State NG 2 - JL mod - D87] (Eterna round: R96, puzzle: Same State NG 2)
Output line: 0.177

Input line: Write down the reported apparent KD of MS2 coat protein of AACAGUCGGCGAGGAUAUGGACGUACGGACUAACCCGCGCGGCUCACAUGAGGAUCACCCAUGUUCUAGAAGGCGCCACUGAAA [Xeorendi] (Eterna round: R96, puzzle: Same State NG 2) , test system: MS2 coat protein.
Output line: 0.0138

Input line: Recall the recorded apparent KD of MS2 coat protein for AUGUGUUUGCGAGGAUAUCGUUUGUUGAAGUUACGAGAAGGCGCUCACUUUACAUGAGGAUCACCCAUGUCUUUGAUGCAUGAU [JR_SSNG1_Sub073] (Eterna round: R96, puzzle: Same State NG 1) with MS2 coat protein and state it.
Output line: 0.0466

Input line: Give MS2 coat protein apparent KD of MS2 coat protein for CCGAUGCAAAUAAAACAUGAGGAUCACCCAUGUGAGACACAUGAGGAUAUGCAGGUCAAAGACUUGCAGAAGGCAUAGCGUCGG [JL SSNG3 3.87] (Eterna round: R96, puzzle: Same State NG 3)
Output line: 0.0241

Input line: Look up apparent KD of MS2 coat protein with MS2 coat protein for this sequence: GCUACCAUUGAUGCCUACAUGAGGAUCACCCAUGUAUGUAGGCAGGAUAUCGAUUGCAAAGCGAUCGAGAAGGGCUUAGGUAGC [Mat - Same State NG 3 - JL Mod - D93] (Eterna round: R96, puzzle: Same State NG 3)
Output line: 0.056

Input line: Give apparent KD of MS2 coat protein (MS2 coat protein) of the following sequence: AAAGGAUGAUGUUACAUGAGGAUCACCCAUGUAGUGAUAACUAAGGAUAUCUGUUAAACAAGUUAAGAGAAGGUAGGAUCAUUA [AK SSNG3-V2-8] (Eterna round: R96, puzzle: Same State NG 3)
Output line: 0.0428

Input line: Under MS2 coat protein: apparent KD of MS2 coat protein value of AAAAGAAACAUGUACCUGAGUACAUGAAAACAUGAGGAUCACCCAUGUAACAAGCUGGGUGCUCGUCUUAUAAGAAA [JL pocket 1] (Eterna round: R96, puzzle: Sensor for hsa-mir-208a) ?
Output line: 0.137
